Answer each item with its documented pIC50.
# TEST_SYSTEM: recombinant human mGluR2 (Homo sapiens (Human))
# TEST_DETAILS: FLIPR Ca2+ mobilization assay: inhibition of glutamate-dependent mGluR2 activity
# SETTINGS: CHO dhfr- cells stably expressing recombinant human mGluR2 and Gα16, Fluo-4 AM, FLIPR384; inhibition of response to 2,500 nM glutamate
Numbers only, as −log10 of the molar value.

In the examples that follow, each entry is paired with its recorded pIC50.
| COMPOUND | pIC50 |
| --- | --- |
| C[C@H](OC(F)F)[C@H]1CCc2c(-c3ccc(F)cc3F)cc(C(N)=O)nc2O1 | 7.96 |
| COC[C@@H]1CCc2c(-c3ccc(F)cc3F)cc(C(N)=O)nc2O1 (single isomer, unassigned) | 7.59 |
| NC(=O)c1cc(-c2ccc(F)cc2F)c2c(n1)O[C@H](CNCC(F)(F)F)CC2 | 7.68 |
| C[C@@H]1Cc2c(-c3ccc(F)cc3F)cc(C(N)=O)nc2O[C@H]1COC(F)F | 7.82 |
| NC(=O)c1cc(-c2ccc(F)cc2F)c2c(n1)O[C@@H](CNCC(F)(F)F)CC2 (single isomer, unassigned) | 7.55 |
| NC(=O)c1cc(-c2ccc(F)cc2F)c2c(n1)O[C@H](CO)CC2 | 7.42 |

Could I get pIC50 for every one of these entries?
1. C[C@@H]1Cc2c(-c3ccc(F)cc3F)cc(C(N)=O)nc2O[C@H]1CO
2. Cc1ncc(-c2cc(C(N)=O)nc3c2CCC(COC(F)F)O3)s1 (single isomer, unassigned) [Example 3-3B]
3. C[C@H](OC(F)F)[C@@H]1CCc2c(-c3ccc(F)cc3F)cc(C(N)=O)nc2O1 (single isomer, unassigned)
4. NC(=O)c1cc(-c2ccc(F)cc2F)c2c(n1)O[C@H](CF)CC2 (single isomer, unassigned)
5. NC(=O)c1cc(-c2ccc(F)cc2F)c2c(n1)COCC2

### Response
7.46
5.60
7.74
7.28
6.56

* * *

# TEST_SYSTEM: recombinant human mGluR2 (Homo sapiens (Human), UniProt Q14416)
# Sequence (Q14416 19-872): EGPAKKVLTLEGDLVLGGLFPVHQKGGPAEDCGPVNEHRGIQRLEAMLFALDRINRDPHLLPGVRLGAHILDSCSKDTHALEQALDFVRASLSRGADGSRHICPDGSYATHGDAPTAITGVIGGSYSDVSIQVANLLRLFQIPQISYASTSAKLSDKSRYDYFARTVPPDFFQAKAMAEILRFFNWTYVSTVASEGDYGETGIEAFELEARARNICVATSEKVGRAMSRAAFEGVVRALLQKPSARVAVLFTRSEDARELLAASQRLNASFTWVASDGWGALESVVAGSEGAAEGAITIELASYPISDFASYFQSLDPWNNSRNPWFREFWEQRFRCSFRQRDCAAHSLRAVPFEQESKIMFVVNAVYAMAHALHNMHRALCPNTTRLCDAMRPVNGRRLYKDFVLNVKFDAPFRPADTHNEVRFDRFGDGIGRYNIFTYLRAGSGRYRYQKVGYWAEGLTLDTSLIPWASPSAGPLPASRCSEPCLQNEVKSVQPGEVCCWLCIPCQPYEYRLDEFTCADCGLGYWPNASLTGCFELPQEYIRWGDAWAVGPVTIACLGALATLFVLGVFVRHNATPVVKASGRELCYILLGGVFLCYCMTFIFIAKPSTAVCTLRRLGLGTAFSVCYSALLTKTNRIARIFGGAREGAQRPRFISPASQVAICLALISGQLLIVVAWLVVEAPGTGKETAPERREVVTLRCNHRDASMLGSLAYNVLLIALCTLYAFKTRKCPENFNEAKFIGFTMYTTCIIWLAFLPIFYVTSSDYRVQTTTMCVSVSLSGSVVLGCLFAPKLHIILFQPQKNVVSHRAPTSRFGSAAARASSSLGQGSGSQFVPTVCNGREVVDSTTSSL
# TEST_DETAILS: FLIPR Ca2+ mobilization assay: inhibition of glutamate-dependent mGluR2 activity
# SETTINGS: CHO dhfr- cells stably expressing recombinant human mGluR2 and Gα16, Fluo-4 AM, FLIPR384; inhibition of response to 2,500 nM glutamate
QUANTITY_MEASURED: log10 of IC50 (log10 of the value in nM)
Reminder: these figures are log10 of reported IC50, in nM before transformation.

Worked cases, log10 of IC50 given:
| COMPOUND | log10 of IC50 |
| --- | --- |
| NC(=O)c1cc(-c2ccc(F)cc2F)c2c(n1)O[C@H](COC(F)F)CC2 [Example 3-1B] | 1.28 |
| NC(=O)c1cc(-c2ccc(F)cc2F)c2c(n1)O[C@@H](CO)CC2 (single isomer, unassigned) [Example 2-1B] | 2.25 |
| NC(=O)c1cc(-c2ccc(F)cc2)c2c(n1)OC(COC(F)F)CC2 (single isomer, unassigned) [Example 3-2B] | 1.93 |
| C[C@]1(COC(F)F)CCc2c(-c3ccc(F)cc3F)cc(C(N)=O)nc2O1 (single isomer, unassigned) [Example 2-8B] | 1.15 |

Batch request: log10 of IC50 for each of the following compounds.
1. NC(=O)c1cc(-c2cnn(C(F)F)c2)c2c(n1)OC(COC(F)F)CC2 (single isomer, unassigned) [Example 3-4A]
2. C[C@@]1(COC(F)F)CCc2c(-c3ccc(F)cc3F)cc(C(N)=O)nc2O1 (single isomer, unassigned) [Example 2-8A]
3. C[C@@H](OC(F)F)[C@@H]1CCc2c(-c3ccc(F)cc3F)cc(C(N)=O)nc2O1 [Example 2-9B]

### Response
1: 2.44; 2: 0.90; 3: 2.06

Batch lookup, log10 of IC50 per entry.
1. NC(=O)c1cc(-c2ccc(F)cc2F)c2c(n1)O[C@H](C1CC1)CC2 [Example 2-3B]
2. C[C@@H]1Cc2c(-c3ccc(F)cc3F)cc(C(N)=O)nc2O[C@@H]1CO [Example 2-2A]
3. NC(=O)c1cc(-c2ccc(F)cc2)c2c(n1)OC(COC(F)F)CC2 (single isomer, unassigned) [Example 3-2A]
4. C[C@@H]1Cc2c(-c3ccc(F)cc3F)cc(C(N)=O)nc2O[C@@H]1COC(F)F (single isomer, unassigned) [Example 3-9A]
5. Cn1cc(-c2cc(C(N)=O)nc3c2CC2CCC3O2)cn1 (single isomer, unassigned) [Example 1-4B]
6. C[C@H]1CCc2c(-c3ccc(F)cc3F)cc(C(N)=O)nc2O1 (single isomer, unassigned) [Example 2-6B]
7. CC(C)[C@@H]1CCc2c(-c3ccc(F)cc3F)cc(C(N)=O)nc2O1 (single isomer, unassigned) [Example 2-4A]

### Response
1: 1.51; 2: 2.29; 3: 1.26; 4: 0.85; 5: 3.25; 6: 1.41; 7: 1.30
